- Procedure Details: NCI Yeast Anticancer Drug Screen. Data for the bub3 strain (AID 167)
- Measurement Setup: S. cerevisiae bub3 mutant strain, at 50.0 µM, active compounds read high
This is part of a sample that, as a whole, favours compounds with a hit. Of some 79,000 tested, about 15% had one in any assay.
Reported growth inhibition by item:
Note: unit % is implicit; provide only the numeric part.

Recorded growth inhibition, per entry:
>  <Compound>
NC(Cc1cccc([N+](=O)[O-])c1)C(=O)O (stereo not given)

>  <growth inhibition (%)>
13.3

$$$$
>  <Compound>
Brc1ccccc1N=Nc1ccccc1Br

>  <growth inhibition (%)>
-8.5

$$$$
>  <Compound>
C/C(=N/NC(N)=O)c1c(C)c(Cl)cc(Cl)c1OCCCC(C)C

>  <growth inhibition (%)>
22.9

$$$$
>  <Compound>
Cc1cccc2nc(-c3ccccc3)ccc12

>  <growth inhibition (%)>
4.95

$$$$

// sample `C[S+](C)CCS(=O)(=O)[O-]` , its growth inhibition was 4.95
